B1: ZNF449 (parent)
chain: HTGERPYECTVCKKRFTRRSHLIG

# Variants of: B1
# MEASUREMENT_NOTES: protein stability index of a GFP-peptide fusion (GPS, HEK-293T) (PSI 1-6); higher = more stable;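 further: lentivirally expressed fusions sorted by FACS into six bins by GFP to DsRed ratio, PSI derived from sequencing read proportions per bin multiplied by bin number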
# STUDY_CONDITIONS: c terminus: a fixed tail appended
Exercise: for every item that follows, state its recorded protein stability index.
One number for each entry.

Examples with answers:
>>> assay_result("R5G")
2.24
>>> assay_result("S20C")
1.86
>>> assay_result("E4W")
1.8
>>> assay_result("F16W")
1.96
>>> assay_result("S20V")
1.99
>>> assay_result("E4C")
2.26

Lab note: each variant below needs its protein stability index filled in.
1. C9K
2. R18P

[3.97, 1.91]
